# Test system: K-562 leukemia
# MEASUREMENT NOTES: NCI tumour cell line growth inhibition, 48 h
Measured TGI, listed per entry.
QUANTITY KIND: TGI

1. C=C1C(=O)OC2(C)C3CCC(C3)C12 (stereo not drawn)    > 100 µM
2. CC(C)=CC(=O)O[C@H]1C(=O)O[C@@H]2C[C@H]3[C@H](C)C(=O)C(O[C@@H]4O[C@H](CO)[C@@H](O)[C@H](O)[C@H]4O)=C[C@]3(C)[C@H]3[C@@H](O)[C@H](O)[C@]4(C(=O)O)OC[C@]32[C@@H]14    > 100 µM
3. CN(C)CCCN1c2nc3ccccc3cc2Sc2cc3ccccc3nc21    > 100 µM

----------
# Tested on: SF-539 CNS
# MEASUREMENT NOTES: NCI tumour cell line growth inhibition, 48 h
Measured TGI, listed per entry.
QUANTITY KIND: TGI

1) COc1cc2noc(-c3ccccc3)c2cc1OC    > 100 µM
2) COc1ccccc1C1SCC(=O)N1c1ccc(-c2ccc(-n3c(-c4ccccc4)nc4ccccc4c3=O)cc2)cc1 (stereo unspecified)    > 100 µM
3) O=C(NCCC(F)(F)C(F)(F)C(F)(F)C(F)(F)F)NC1OC(CO)C(O)C(O)C1O (stereo unspecified)    > 100 µM
4) CCOC(=O)/C(=C\c1ccc(N(C)C)cc1)S(=O)(=O)C(F)(F)C(F)(F)C(F)(F)C(F)(F)F    > 100 µM
5) C=C=C(CC)C(C(=O)OC)N(CC)CC (stereo unspecified)    > 100 µM
6) O=S(=O)(NCC1CCC(CNc2ccc(Cl)cc2)CC1)c1ccc(-c2ccccc2)cc1 (stereo unspecified)    > 50 µM
7) c1ccc(-c2sc(-c3cccs3)cc2Cc2cccs2)cc1    > 10 µM
8) CCCCCC(=O)c1ccc2[nH]c3c(C)cc([N+](=O)[O-])c(C)c3c2c1    > 100 µM
9) C=C1C(=O)OC2(C)C3CCC(C3)C12 (stereo unspecified)    > 100 µM
10) O=C(N=C1SCCN1C(=O)C(C(F)(F)F)C(F)(F)F)C(C(F)(F)F)C(F)(F)F    > 100 µM
11) NNc1cccc(/C=C/c2ccccc2)cc1=O    > 100 µM

----------
Measured TGI, listed per entry.
# Test system: NCI/ADR-RES ovarian
# MEASUREMENT NOTES: NCI tumour cell line growth inhibition, 48 h
QUANTITY KIND: TGI

1. O=[N+]([O-])/C(C(Cl)=C(Cl)Cl)=C1\NCCO1    > 100 µM
2. CCCCNN    > 100 µM
3. COc1cc2c3c(c1)c1cc(OC)c(OC)cc1c[n+]3CC2    > 100 µM
4. CC(=O)OCC1OC(n2cc(F)c(=O)[nH]c2=O)C(N)C(OC(C)=O)C1OC(C)=O (centres undefined)    > 100 µM

----------
# Test system: NCI-H522 lung
# MEASUREMENT NOTES: NCI tumour cell line growth inhibition, 48 h
QUANTITY KIND: TGI

1) Clc1ccc(Cc2nc3ccc(CCN4CCN(c5ccccc5)CC4)cc3[nH]2)cc1    28.4 µM
2) O=c1/c(=C\c2ccccc2)sc2n1C(c1ccccc1)C1(O)CCCCC1N=2 (stereo not drawn)    > 100 µM
3) Cc1sc(C)c(Cc2c(C)sc(C)c2CCl)c1CCl    > 100 µM
4) O=[N+]([O-])c1ccc(N/N=C/c2c(O)ccc3ccccc23)nc1    > 100 µM
5) Cc1nc2sc(C(=O)Nc3cccc4ccccc34)c(N)c2cc1C(=O)c1ccccc1    > 50 µM
6) O=C(c1ccc2ncc(-c3nc(NC4CC4)ncc3F)n2c1)N1CCOCC1    7.41 µM
7) CCOc1ccc(/C=C(\Cl)c2ccc(OC)c(OC)c2)cc1    74.1 µM
8) COC(=O)C1=C(C)NC2(O)C=CC(=O)C3C(=O)N(c4ccccc4)C(=O)C132 (stereo not drawn)    > 100 µM
9) NC(=Nc1ccc(O)cc1)S(=O)(=O)O    > 100 µM
10) Cc1c(C(=O)N2CCN(c3ccc([N+](=O)[O-])cc3)CC2)[n+](=O)c2cc(Cl)c(Cl)cc2n1[O-]    32.7 µM
11) CN1NC2(CCCCC2)ON=C1c1ccccc1    > 100 µM
12) CCOc1cc2c(NCCCN(CCO)CCO)ncnc2c(OCC)c1OCC    > 100 µM
13) CCCCCCCCCCCCCCCCSCC(COC)COP(=O)([O-])OCC[N+](C)(C)C (stereo not drawn)    10.9 µM
